The values you see were collected from PubChem BioAssay (NCI).

tested on: HCT-15 colon; test: NCI tumour cell line growth inhibition, 48 h

- Compound: "CN(C)CCCNC1=C(Cl)C(=O)c2ccccc2C1=O"
  GI50: "1760 nM"
- Compound: "CC1=C(C#N)C23C(=O)c4ccccc4C(O)=C2C(=O)C=CC3(O)N1Cc1ccccc1 (stereo unspecified)"
  GI50: "15000 nM"
- Compound: "CNC(=O)c1ccccc1Nc1nc(Nc2ccc(N3CCOCC3)cc2OC)ncc1Cl"
  GI50: "542 nM"
- Compound: "CCCCCCCC(=O)SCC/C=C/[C@@H]1CC(=O)NCc2cccc(n2)C2=N[C@@](C)(CS2)C(=O)N[C@@H](C(C)C)C(=O)N1"
  GI50: "14300 nM"
- Compound: "COc1c2ccoc2c(/C=C/C=O)c2oc(-c3ccccc3)cc(=O)c12"
  GI50: "2520 nM"
- Compound: "CC(C)c1ccc(C(C)C(=O)N(CC2=C(C(C)c3ccccn3)c3ccccc3C2)C(C)C)cc1 (stereo unspecified)"
  GI50: "2840 nM"
